Target: hA3AR (Homo sapiens)
Sequence (P0DMS8 1-318): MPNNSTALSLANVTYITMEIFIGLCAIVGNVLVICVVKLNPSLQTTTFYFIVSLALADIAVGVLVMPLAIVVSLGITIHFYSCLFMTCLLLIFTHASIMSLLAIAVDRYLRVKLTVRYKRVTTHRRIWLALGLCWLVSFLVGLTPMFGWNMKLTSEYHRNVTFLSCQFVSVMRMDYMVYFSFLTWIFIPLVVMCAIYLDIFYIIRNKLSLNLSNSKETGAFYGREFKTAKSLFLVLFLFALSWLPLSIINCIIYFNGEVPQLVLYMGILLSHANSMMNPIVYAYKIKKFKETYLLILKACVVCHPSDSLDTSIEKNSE
Type: cell-based
Conditions: in words, from cyclic AMP assay at 10 µM
MEASURED_PARAMETER: functional character at the hA3AR

MOLECULE | DATA_VALUE
CCNc1nc(C#Cc2ccccc2)nc2c1ncn2[C@H]1[C@H](O)[C@H](O)[C@@H]2C[C@@H]21 [Compound 8] | antagonists
CNc1nc(C#Cc2ccccc2Cl)nc2c1ncn2[C@H]1[C@H](O)[C@H](O)[C@@H]2C[C@@H]21 [Compound 5] | antagonists
CCNc1nc(C#Cc2ccccc2Cl)nc2c1ncn2[C@H]1[C@H](O)[C@H](O)[C@@H]2C[C@@H]21 [Compound 9] | antagonists
